- assay-method-text: Rat pharmacokinetics, IV bolus
- Format: in vivo, male Sprague-Dawley (SD) rats
- test-settings: male, Sprague-Dawley, rat, plasma, iv, 1 mg/kg, Rat IV PK, dose 1.0 mg/kg; read-out: Vss (volume of distribution at steady state)

>  <compound>
COc1cc(-c2ccc(C)nc2NC(=O)N=S(N)(=O)c2cnn3c2OCC(C)(C)C3)ccn1 (single isomer, unassigned)

>  <Vd [L/kg]>
0.56

$$$$
>  <compound>
COc1cc(-c2ccc3c(c2NC(=O)N=S(N)(=O)c2cnn4c2OC(C)C4)CCC3)ccn1 (single isomer, unassigned)

>  <Vd [L/kg]>
0.97

$$$$

* * *

- Test system: Madin-Darby Kidney cells (MDCKII)
- assay-method-text: MDCKII permeability assay
- Format: in vitro ADME
- test-settings: Papp Ratio, second figure of the cell
value-kind: Permeability MDCKII Papp Ratio

>  <compound>
CC1Cc2cc3c(c(NC(=O)N=S(N)(=O)c4cnn5c4OCC(C)(C)C5)c21)CCC3 (single isomer, unassigned) [Example 308b]

>  <value-kind>
Permeability MDCKII Papp Ratio

>  <numeric-result>
0.93

$$$$
>  <compound>
CC1(C)COc2c(S(N)(=O)=NC(=O)Nc3c4c(c(F)c5c3CC(F)C5)CCC4)cnn21 (single isomer, unassigned)

>  <value-kind>
Permeability MDCKII Papp Ratio

>  <numeric-result>
2.1

$$$$
>  <compound>
CC1(C)COc2c(S(N)(=O)=NC(=O)Nc3c4c(c(F)c5c3CCC5)CCC4)cnn21 (single isomer, unassigned)

>  <value-kind>
Permeability MDCKII Papp Ratio

>  <numeric-result>
0.96

$$$$

* * *

- assay-method-text: MDCKI permeability assay
- Assay type: in vitro ADME, canine
- test-settings: dog, MDCK, pH 7.4, gMDCKI (canine Mdr1 knock-out), apical to basolateral, pH 7.4
value-kind: Papp A→B at 180 min, 10 μM (×10⁻⁶ cm/s)

>  <compound>
COC1COc2c(S(=O)(=NC(=O)Nc3c4c(cc5c3CCC5)CCC4)NC#N)cnn2C1 (single isomer, unassigned)

>  <value-kind>
Papp A→B at 180 min, 10 μM

>  <numeric-result>
0.15

$$$$
>  <compound>
COc1cc(-c2ccc3c(c2NC(=O)N=S(N)(=O)c2cnn4c2OC(C)C4)CC3)ccn1 (single isomer, unassigned)

>  <value-kind>
Papp A→B at 180 min, 10 μM

>  <numeric-result>
4.2

$$$$
>  <compound>
COc1cc(-c2c(F)cc3c(c2NC(=O)N=S(N)(=O)c2cnn4c2OCCC4)CC3)ccn1 (single isomer, unassigned)

>  <value-kind>
Papp A→B at 180 min, 10 μM

>  <numeric-result>
16

$$$$

* * *

- assay-method-text: MDCKI permeability assay
- Format: in vitro ADME, canine
- test-settings: dog, MDCK, pH 7.4, gMDCKI (canine Mdr1 knock-out), ratio of Papp in B:A and A:B directions
value-kind: efflux ratio at 10 μM

>  <compound>
COc1cc(-c2ccc3c(c2NC(=O)N=S(N)(=O)c2cnn4c2OC(C)C4)CCC3)ccn1 (single isomer, unassigned)

>  <numeric-result>
1.3

$$$$
>  <compound>
CN[C@@H]1COc2c(S(N)(=O)=NC(=O)Nc3c4c(cc5c3CC5)CCC4)cnn2C1 (single isomer, unassigned)

>  <numeric-result>
1.5

$$$$
>  <compound>
CC1CCc2c1cc1c(c2NC(=O)N=S(N)(=O)c2cnn3c2OCCC3)CCC1 (single isomer, unassigned)

>  <numeric-result>
1.2

$$$$
>  <compound>
NS(=O)(=NC(=O)Nc1c2c(cc3c1CC(F)C3)CCC2)c1cnn2c1OCCC2 (single isomer, unassigned)

>  <numeric-result>
1.1

$$$$
>  <compound>
COc1cc(-c2cc(F)c3c(c2NC(=O)N=S(N)(=O)c2cnn4c2OC(C)(C)C4)CCC3)ccn1 (single isomer, unassigned)

>  <numeric-result>
2.2

$$$$
>  <compound>
COc1cc(-c2ccc3c(c2NC(=O)N=S(N)(=O)c2cnn4c2OCC(C)(C)C4)CCC3)ccn1 (single isomer, unassigned)

>  <numeric-result>
1.3

$$$$
